Experiment: Peak and trough ranolazine plasma concentrations, IR regimens (Example 3)
Assay type: in vivo
Conditions: human, oral, across the 3 IR dosing regimens, read-out: plasma mean peak concentrations, ranolazine free base
recordedMetric: concentration at 1 h

Consider the compound shown here: COc1ccccc1OCC(O)CN1CCN(CC(=O)Nc2c(C)cccc2C)CC1 (racemic) What is its recorded concentration at 1 h?
1350 to 2130 ng/mL

* * *

Assay: Solubility of ranolazine in aqueous solutions by pH
Type: physicochemical
Details: aqueous solution, aqueous buffer; Solution pH 7.73
recordedMetric: solubility (µg/mL)
The figure you give is taken to be in µg/mL; do not add the unit.

Would you mind telling me what solubility value was observed for COc1ccccc1OCC(O)CN1CCN(CC(=O)Nc2c(C)cccc2C)CC1 (racemic) [Ranolazine] ?
170
